The entries below come with measured pEC50 values attached.
# TARGET_SYSTEM: Glucocorticoid receptor (Homo sapiens)
# Sequence (P04150 whole entry): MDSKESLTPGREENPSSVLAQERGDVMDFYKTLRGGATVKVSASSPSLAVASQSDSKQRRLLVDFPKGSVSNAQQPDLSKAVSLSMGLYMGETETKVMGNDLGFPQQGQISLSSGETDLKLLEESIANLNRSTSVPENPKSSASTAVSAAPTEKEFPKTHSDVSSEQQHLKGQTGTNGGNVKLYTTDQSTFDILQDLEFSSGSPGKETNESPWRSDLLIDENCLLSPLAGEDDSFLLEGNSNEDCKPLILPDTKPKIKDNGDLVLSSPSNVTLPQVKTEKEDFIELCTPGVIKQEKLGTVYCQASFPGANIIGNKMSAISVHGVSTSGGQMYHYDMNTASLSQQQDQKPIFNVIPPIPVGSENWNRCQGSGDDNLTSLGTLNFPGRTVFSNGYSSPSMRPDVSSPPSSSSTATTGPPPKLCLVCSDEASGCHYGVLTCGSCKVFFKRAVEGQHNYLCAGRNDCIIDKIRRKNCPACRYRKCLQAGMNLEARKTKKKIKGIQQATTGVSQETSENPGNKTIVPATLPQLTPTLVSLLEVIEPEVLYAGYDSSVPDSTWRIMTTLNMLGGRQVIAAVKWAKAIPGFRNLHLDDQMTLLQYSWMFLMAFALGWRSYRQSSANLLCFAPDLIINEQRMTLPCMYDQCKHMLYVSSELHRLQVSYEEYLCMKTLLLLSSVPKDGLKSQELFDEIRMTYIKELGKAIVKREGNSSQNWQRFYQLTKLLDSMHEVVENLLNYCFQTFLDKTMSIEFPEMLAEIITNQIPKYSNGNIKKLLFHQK
# PROTOCOL_DETAILS: Agonist activity at glucocorticoid receptor in human HeLa cells assessed as NP-1 transactivation by luciferase reporter gene assay
# Assay type: cell-based
Just so you know, pEC50 here is -log10 of the concentration in molar units; reply with that number alone.

> print(dat)
                                   molecule  endpoint.name  recorded.value
1  CC(C)(C(=O)Nc1nncs1)[C@@H]1c2ccc(-c3ccc(C(=O)N4CCOCC4)cc3)nc2Oc2c(F)cccc21          pEC50            7.97
2  CCN(C)C(=O)c1ccc(-c2ccc3c(n2)Oc2ccccc2[C@@H]3C(C)(C)C(=O)Nc2nncs2)cc1          pEC50            7.01
3  CC(C)(C(=O)NC(N)=O)[C@@H]1c2ccc(-c3ccc(C(=O)N4CCCC4)nc3)nc2Oc2c(F)cccc21          pEC50            6.95
4  CC(=O)NC(=O)C(C)(C)[C@@H]1c2ccc(-c3ccc(C(=O)N4CCOCC4)cc3)nc2Oc2c(F)cccc21          pEC50            7.85

Please tell me: pEC50 of `CC(C)(C(=O)NC(N)=O)[C@H]1c2ccccc2Oc2nc(-c3ccc(C(=O)N4CCOCC4)cc3)ccc21` , system Glucocorticoid receptor (Homo sapiens)?
7.96
